- SYSTEM: Glucagon-like peptide 1 receptor (Homo sapiens) (UniProt P43220)
- Sequence (P43220 whole entry, looked up): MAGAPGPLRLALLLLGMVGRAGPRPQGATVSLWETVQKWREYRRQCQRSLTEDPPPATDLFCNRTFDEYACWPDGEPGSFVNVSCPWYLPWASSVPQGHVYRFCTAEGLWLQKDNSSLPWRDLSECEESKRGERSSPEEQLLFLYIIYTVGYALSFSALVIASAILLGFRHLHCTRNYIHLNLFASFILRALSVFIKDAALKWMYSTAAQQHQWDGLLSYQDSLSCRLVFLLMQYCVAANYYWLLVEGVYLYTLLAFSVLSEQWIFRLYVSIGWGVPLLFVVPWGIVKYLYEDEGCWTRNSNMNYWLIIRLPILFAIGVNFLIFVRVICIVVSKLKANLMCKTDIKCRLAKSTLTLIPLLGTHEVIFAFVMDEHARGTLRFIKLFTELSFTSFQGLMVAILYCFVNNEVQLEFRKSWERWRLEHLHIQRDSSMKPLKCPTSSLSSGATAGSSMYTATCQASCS
- ASSAY_OVERVIEW: qHTS of GLP-1 Receptor Inverse Agonists (Inhibition Mode); note: nearly all actives have a fitted effect of over 55% in size; note: potency is the fitted concentration of half-maximal effect
- CONDITION_NOTES: HEK293 GLP-1R CRE-luciferase, luminescence, 24 h, GLP-1R form is constitutively active; series mostly up to 38.3 µM
In all, about 410,000 compounds went through this assay and about 6,400 (1.6%) were called active. Roughly 20% stayed inconclusive and do not appear here. For the sample, actives were picked, then their nearest neighbours and some compounds at random.
RESULT_TYPE: Potency

>>> assay_result("O=[N+]([O-])c1cc(Br)c(O)c(/C=N/Nc2nc3ccccc3s2)c1")
"4.47 µM (active)"
>>> assay_result("Cc1cc(-c2ccccc2)n2nc(C)c(-c3ccccc3)c2n1")
"inactive"
>>> assay_result("Cc1cccc(Nc2nc(-c3ccccc3)cs2)n1")
"3.16 µM (active)"
>>> assay_result("COc1ccc(-c2cc(NC=O)c3ncc(-c4ccccc4)n3c2)cc1OC")
"inactive"
>>> assay_result("COC(=O)C(Cc1c[nH]c2ccccc12)NC(=O)CCNC(=O)c1ccco1 (configuration not stated)")
"inactive"
>>> assay_result("Cn1nccc1C(=O)NC1CCCc2c1cnn2-c1ccc(F)cc1F (configuration not stated)")
"inactive"
>>> assay_result("COc1ccc(CC(=O)N/N=C/c2cc([N+](=O)[O-])cc(Br)c2O)cc1")
"inactive"
>>> assay_result("CCOC(=O)c1cc2sccc2n1Cc1ccc(C#N)cc1")
"inactive"
>>> assay_result("CC(=O)OC[C@@H]1CN(Cc2ccccc2)C[C@H](n2cnc3c(NCc4ccco4)ncnc32)O1")
"inactive"
>>> assay_result("CCC(Oc1ccccc1)C(=O)OCC(=O)Nc1c(C)nn(-c2ccccc2)c1C (configuration not stated)")
"inactive"
>>> assay_result("COc1ccccc1NC(=O)c1cc(C2CC2)nc2c1c(C)nn2-c1ccc(C)cc1")
"inactive"
>>> assay_result("COc1ccc2[nH]c(=O)c(CN(Cc3cccnc3)S(=O)(=O)c3ccccc3F)cc2c1")
"5.01 µM (active)"
>>> assay_result("COC(=O)c1ccc2nc(-c3ccccc3)c(Cc3ccc(OC)cc3C)n2c1")
"inactive"
>>> assay_result("Cc1nc2ccccn2c(=O)c1NC(=O)c1ccc(Br)o1")
"inactive"
>>> assay_result("O=C(NC(Nc1nc2ccc([N+](=O)[O-])cc2s1)(C(F)(F)F)C(F)(F)F)c1ccccc1")
"inactive"
>>> assay_result("N#CCCC(C#N)(c1cccnc1)N1CCOCC1 (configuration not stated)")
"inactive"
>>> assay_result("O=C(CN1CCCCCC1)Nc1ccc(Cl)cc1F")
"inactive"
>>> assay_result("COc1ccccc1NC(=O)CC(NCCN(C)C)C(=O)O (configuration not stated)")
"inactive"
>>> assay_result("COc1ccc(NC(=O)c2cc(-c3ccc(C)o3)nc3ccccc23)cc1")
"inactive"
>>> assay_result("COc1cc(NC(=O)c2cc(C3CC3)nc3c2c(C)nn3-c2ccccc2)cc(OC)c1")
"10 µM (active)"
>>> assay_result("Cc1ccccc1NC(=O)Cc1nc(COC(=O)CNC(=O)c2ccc(Cl)cc2Cl)cs1")
"inactive"
>>> assay_result("CCCC(=O)N1CCC1(C)C(=O)NS(=O)(=O)c1ccc(Cl)cc1 (configuration not stated)")
"inactive"
>>> assay_result("CCOC(=O)c1cc(-c2sc(NC(=O)c3ccccc3)nc2C)n(CCO)n1")
"inactive"
>>> assay_result("O=C(NCc1ccccc1Cl)c1csc([C@@H]2O[C@H](CO)[C@@H](O)[C@H]2O)n1")
"inactive"
>>> assay_result("Cc1cc(-n2nc(C)cc2C)n2nc(C)c(-c3ccccc3)c2n1")
"inactive"
>>> assay_result("CCCNC(=O)C1(C)CCCN(Cc2c(C)nn(-c3ccccc3)c2C)C1 (configuration not stated)")
"inactive"
>>> assay_result("O=C(CN1CCCCCC1)Nc1ccc(Br)cc1Br")
"10 µM (active)"
>>> assay_result("O=C(c1cc2sccc2n1Cc1ccc(F)cc1)N1CCc2ccccc21")
"5.01 µM (active)"
>>> assay_result("CCCCCCN1C[C@@H](O)[C@H](n2cc(COC(=O)c3ccccc3)nn2)C[C@@H]1c1ccc(Cl)cc1")
"inactive"
>>> assay_result("COc1ccc(S(=O)(=O)N2CCC(C(=O)NCCC(=O)Nc3ccccc3OC)CC2)cc1")
"inactive"
>>> assay_result("Cc1ccc(Cn2cc(CN3CC(N4CCN(C)CC4)CS3(=O)=O)nn2)cc1 (configuration not stated)")
"inactive"
>>> assay_result("COc1ccc(NC(=O)COC(=O)C2COc3ccccc3O2)cc1 (configuration not stated)")
"inactive"
>>> assay_result("CC(=O)Nc1cc(-c2ccc(N3CCN(C)CC3)cc2)cn2c(-c3cccc(C(=O)N(C)C)c3)cnc12")
"inactive"
>>> assay_result("CCc1nc2c(OCCOc3ccccc3)cccn2c1N(C)C(=O)c1ccc(OC)cc1")
"inactive"
>>> assay_result("CC(=O)Oc1cc2c(C(=O)NCCN3CCOCC3)c(C)oc2c2ccccc12")
"10 µM (active)"
>>> assay_result("CCc1cc(=O)oc2c(C)c(OCC(=O)NCCN3CCOCC3)ccc12")
"inactive"
>>> assay_result("CSc1ccc(CCNC(=O)C2CCN(c3nnc(-n4cccc4)s3)CC2)cc1")
"inactive"
>>> assay_result("COc1ccc(N2CCC(N3CCN(C)C(CCO)C3)CC2)cc1 (configuration not stated)")
"inactive"
>>> assay_result("O=C(CN1C(=O)NC2(CCc3ccccc32)C1=O)NC1CCCCC1 (configuration not stated)")
"inactive"
>>> assay_result("CC(=O)Nc1ccc(NC(=O)c2cc3sccc3n2Cc2ccc(F)cc2)cc1")
"inactive"
>>> assay_result("CC(C)N1C(=O)c2ccccc2NC(=O)C1C(=O)NCc1cccs1 (configuration not stated)")
"inactive"
>>> assay_result("C[C@H](NC(=O)CC[C@H]1O[C@@H](n2ccc(=O)[nH]c2=O)[C@H](O)[C@@H]1O)c1cccc2ccccc12")
"inactive"

Just for reference, PubChem BioAssay AID624417 is where these values come from.
